Reference for the values: patent US20240024488A1

target: HiBit-BRM fusion protein (Homo sapiens, UniProt P51531); construct: expressed in transfected cells; assay: HiBiT-BRM cell-based degradation assay (Nano-Glo HiBiT Lytic Detection, 24 h); conditions: HeLa cell line expressing HiBiT-BRM, read-out: BRM HiBit Degradation IC50
Sequence (P51531 whole entry, the tested form may be a part): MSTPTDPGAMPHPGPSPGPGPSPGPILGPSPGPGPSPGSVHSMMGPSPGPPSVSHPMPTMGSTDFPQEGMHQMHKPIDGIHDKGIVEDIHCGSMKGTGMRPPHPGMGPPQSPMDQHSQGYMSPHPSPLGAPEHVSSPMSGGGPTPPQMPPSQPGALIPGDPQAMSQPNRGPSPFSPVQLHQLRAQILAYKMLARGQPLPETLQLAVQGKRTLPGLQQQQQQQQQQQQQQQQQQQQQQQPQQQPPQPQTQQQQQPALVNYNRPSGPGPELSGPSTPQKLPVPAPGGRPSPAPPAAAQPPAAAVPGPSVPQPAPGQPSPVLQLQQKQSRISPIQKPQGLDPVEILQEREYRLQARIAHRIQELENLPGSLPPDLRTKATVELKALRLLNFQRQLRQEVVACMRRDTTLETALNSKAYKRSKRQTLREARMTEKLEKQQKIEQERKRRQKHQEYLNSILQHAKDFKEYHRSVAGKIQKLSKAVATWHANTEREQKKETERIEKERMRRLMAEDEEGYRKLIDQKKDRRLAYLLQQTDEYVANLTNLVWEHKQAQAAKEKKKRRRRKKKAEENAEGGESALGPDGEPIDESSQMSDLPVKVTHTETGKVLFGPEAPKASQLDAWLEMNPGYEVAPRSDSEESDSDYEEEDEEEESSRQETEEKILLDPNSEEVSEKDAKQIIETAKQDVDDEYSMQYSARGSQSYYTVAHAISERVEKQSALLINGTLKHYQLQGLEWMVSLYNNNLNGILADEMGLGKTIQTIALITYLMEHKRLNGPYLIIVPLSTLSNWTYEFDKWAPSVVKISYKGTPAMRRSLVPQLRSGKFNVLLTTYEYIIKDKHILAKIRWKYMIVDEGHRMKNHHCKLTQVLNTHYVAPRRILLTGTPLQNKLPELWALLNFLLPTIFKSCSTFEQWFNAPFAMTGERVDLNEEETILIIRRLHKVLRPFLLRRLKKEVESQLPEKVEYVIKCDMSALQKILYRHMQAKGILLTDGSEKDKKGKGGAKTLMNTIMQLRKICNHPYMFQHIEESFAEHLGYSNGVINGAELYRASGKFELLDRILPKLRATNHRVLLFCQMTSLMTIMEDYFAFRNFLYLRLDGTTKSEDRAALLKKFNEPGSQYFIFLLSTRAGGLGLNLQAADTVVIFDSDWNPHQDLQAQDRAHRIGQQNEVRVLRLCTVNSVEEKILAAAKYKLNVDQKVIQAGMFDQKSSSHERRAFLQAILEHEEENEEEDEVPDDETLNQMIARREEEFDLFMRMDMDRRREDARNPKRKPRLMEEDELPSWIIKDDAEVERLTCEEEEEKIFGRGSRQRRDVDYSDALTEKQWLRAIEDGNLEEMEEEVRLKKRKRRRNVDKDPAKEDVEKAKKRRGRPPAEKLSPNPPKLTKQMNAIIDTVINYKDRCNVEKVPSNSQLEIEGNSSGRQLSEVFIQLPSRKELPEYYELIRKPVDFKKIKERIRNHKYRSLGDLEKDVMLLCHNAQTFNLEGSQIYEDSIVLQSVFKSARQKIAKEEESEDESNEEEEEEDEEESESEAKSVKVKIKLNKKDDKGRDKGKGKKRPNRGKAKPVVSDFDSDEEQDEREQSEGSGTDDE
Reported DC50 values for a set of compounds

Illustrative cases are given below, each with its answer.
{"compound": "Cc1ncsc1-c1ccc([C@H](C)NC(=O)[C@@H]2C[C@@H](O)CN2C(=O)[C@@H](c2cc(OCCN3Cc4[nH]c5nnc(-c6ccccc6O)cc5c4C3)no2)C(C)C)cc1 [Compound 123]", "DC50": "> 100 nM"}
{"compound": "Cc1ncsc1-c1ccc([C@H](C)NC(=O)[C@@H]2C[C@@H](O)CN2C(=O)[C@@H](c2cc(N3CCN(C(=O)[C@H]4C[C@@]5(Cc6cc(-c7ccccc7O)nnc6N5)C4)CC3)no2)C(C)C)cc1 (racemic) [Compound 80]", "DC50": "> 10 nM"}

Which DC50 reading was recorded for the compound Cc1ncsc1-c1ccc([C@H](C)NC(=O)[C@@H]2C[C@@H](O)CN2C(=O)[C@@H](c2cc(OCCN3CC4(CNc5nnc(-c6ccccc6O)cc54)C3)no2)C(C)C)cc1 (racemic) [Compound 177] ? > 1000 nM

* * *

molecular target: HiBit-BRG1 fusion protein (Homo sapiens, UniProt P51532); construct: expressed in transfected cells; assay: HiBiT-BRG1 cell-based degradation assay (Nano-Glo HiBiT Lytic Detection, 24 h); conditions: HeLa cell line expressing HiBit-BRG1 and LgBit, read-out: BRMG1 HiBit Degradation IC50
Sequence (P51532 whole entry, the tested form may be a part): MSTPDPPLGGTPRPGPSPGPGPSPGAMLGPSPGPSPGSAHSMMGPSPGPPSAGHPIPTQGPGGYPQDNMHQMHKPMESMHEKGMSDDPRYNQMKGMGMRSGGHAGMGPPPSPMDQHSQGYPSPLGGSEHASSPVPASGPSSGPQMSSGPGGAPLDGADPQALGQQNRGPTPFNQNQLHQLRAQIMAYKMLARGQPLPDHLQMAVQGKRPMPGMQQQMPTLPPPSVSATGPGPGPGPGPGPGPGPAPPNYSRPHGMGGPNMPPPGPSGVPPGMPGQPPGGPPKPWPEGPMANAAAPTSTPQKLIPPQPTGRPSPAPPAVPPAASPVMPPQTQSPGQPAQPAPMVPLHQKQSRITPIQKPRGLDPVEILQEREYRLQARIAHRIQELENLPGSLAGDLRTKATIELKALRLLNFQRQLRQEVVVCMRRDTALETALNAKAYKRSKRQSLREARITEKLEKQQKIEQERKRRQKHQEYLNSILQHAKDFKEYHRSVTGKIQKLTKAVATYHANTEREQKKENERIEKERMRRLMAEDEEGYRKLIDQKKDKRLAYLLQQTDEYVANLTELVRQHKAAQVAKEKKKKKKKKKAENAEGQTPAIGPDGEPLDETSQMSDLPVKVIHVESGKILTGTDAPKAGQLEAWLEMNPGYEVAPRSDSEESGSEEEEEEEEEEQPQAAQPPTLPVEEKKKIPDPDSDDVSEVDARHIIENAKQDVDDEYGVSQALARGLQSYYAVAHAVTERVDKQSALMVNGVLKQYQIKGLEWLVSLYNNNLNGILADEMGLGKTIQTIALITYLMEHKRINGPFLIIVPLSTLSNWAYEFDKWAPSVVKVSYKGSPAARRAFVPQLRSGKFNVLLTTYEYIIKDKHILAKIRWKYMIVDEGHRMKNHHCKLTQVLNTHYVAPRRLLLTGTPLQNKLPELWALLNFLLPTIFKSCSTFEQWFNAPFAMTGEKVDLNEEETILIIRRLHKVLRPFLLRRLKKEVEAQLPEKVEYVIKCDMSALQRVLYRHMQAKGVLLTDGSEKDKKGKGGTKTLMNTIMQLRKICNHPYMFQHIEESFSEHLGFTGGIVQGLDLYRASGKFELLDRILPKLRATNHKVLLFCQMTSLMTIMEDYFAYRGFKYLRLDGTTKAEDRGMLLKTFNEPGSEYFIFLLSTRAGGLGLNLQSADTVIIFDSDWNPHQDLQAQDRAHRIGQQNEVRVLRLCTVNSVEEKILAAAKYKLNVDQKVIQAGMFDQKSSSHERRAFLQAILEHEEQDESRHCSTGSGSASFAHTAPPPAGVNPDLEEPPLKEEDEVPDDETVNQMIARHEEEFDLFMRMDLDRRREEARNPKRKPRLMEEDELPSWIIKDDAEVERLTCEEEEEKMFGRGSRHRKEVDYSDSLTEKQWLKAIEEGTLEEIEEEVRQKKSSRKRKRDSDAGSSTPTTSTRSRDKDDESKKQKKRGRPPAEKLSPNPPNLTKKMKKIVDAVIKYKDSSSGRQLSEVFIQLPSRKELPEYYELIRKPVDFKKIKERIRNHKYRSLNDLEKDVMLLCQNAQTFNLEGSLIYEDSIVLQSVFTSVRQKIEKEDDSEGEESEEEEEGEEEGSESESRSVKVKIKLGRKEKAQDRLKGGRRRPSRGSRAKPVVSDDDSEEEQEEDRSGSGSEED
attribute.measured: DC50

Illustrative cases are given below, each with its answer.
{"molecule": "Cc1ncsc1-c1ccc([C@H](C)NC(=O)[C@@H]2C[C@@H](O)CN2C(=O)[C@@H](c2cc(OCCN3CC(CCc4[nH]c5nnc(-c6ccccc6O)cc5c4C)C3)no2)C(C)C)cc1 (single isomer, unassigned)", "DC50": "> 100 nM"}
{"molecule": "Cc1ncsc1-c1ccc([C@H](C)NC(=O)[C@@H]2C[C@@H](O)CN2C(=O)[C@@H](c2cc(OCCN3CCC[C@H](c4cc5cc(-c6ccccc6O)nnc5[nH]4)C3)no2)C(C)C)cc1 (racemic)", "DC50": "> 10 nM"}
{"molecule": "Cc1ncsc1-c1ccc([C@H](C)NC(=O)[C@@H]2C[C@@H](O)CN2C(=O)[C@@H](c2cc(-c3cnc(N4CCc5[nH]c6nnc(-c7ccccc7O)cc6c5C4)nc3)no2)C(C)C)cc1 (single isomer, unassigned)", "DC50": "> 100 nM"}
{"molecule": "Cc1ncsc1-c1ccc([C@H](C)NC(=O)[C@@H]2C[C@@H](O)CN2C(=O)[C@@H](c2cc(OCCN3CCN(c4cc5cc(-c6ccccc6O)nnc5[nH]4)CC3)no2)C(C)C)cc1 (racemic)", "DC50": "> 10 nM"}
{"molecule": "Cc1ncsc1-c1ccc([C@H](C)NC(=O)[C@@H]2C[C@@H](O)CN2C(=O)[C@@H](c2cc(N3CCC(CN[C@@H]4CCc5[nH]c6nnc(-c7ccccc7O)cc6c5C4)CC3)no2)C(C)C)cc1 (single isomer, unassigned)", "DC50": "> 1000 nM"}
{"molecule": "Cc1ncsc1-c1ccc([C@H](C)NC(=O)[C@@H]2C[C@@H](O)CN2C(=O)[C@@H](c2cc(OCCN3CCC(N4CC(c5cc6cc(-c7ccccc7O)nnc6[nH]5)C4)C3)no2)C(C)C)cc1 (mixture of isomers)", "DC50": "> 100 nM"}
{"molecule": "Cc1ncsc1-c1ccc([C@H](C)NC(=O)[C@@H]2C[C@@H](O)CN2C(=O)[C@@H](c2cc(N3CCN(C(=O)N4CC(c5cc6cc(-c7ccccc7O)nnc6[nH]5)C4)CC3)no2)C(C)C)cc1 (racemic)", "DC50": "> 100 nM"}
{"molecule": "Cc1ncsc1-c1ccc([C@H](C)NC(=O)[C@@H]2C[C@@H](O)CN2C(=O)[C@@H](c2cc(OCCN3C[C@@H]4[C@H](C3)[C@H]4c3[nH]c4nnc(-c5ccccc5O)cc4c3Cl)no2)C(C)C)cc1 (racemic)", "DC50": "> 100 nM"}

Which DC50 reading was recorded for the molecule Cc1ncsc1-c1ccc([C@H](C)NC(=O)[C@@H]2C[C@@H](O)CN2C(=O)[C@@H](c2cc(OCCN3CC[C@H](c4[nH]c5nnc(-c6ccccc6O)cc5c4C)C3)no2)C(C)C)cc1 (racemic) ? > 10 nM
